- test summary: reducers of endogenous Her2 protein level, primary screen, SKBR3 breast tumor cells, AlphaScreen, ATP viability (AID 461);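 also: percent of carrier control wells set as 100% viability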
- stated conditions: 18-24 h, measured here: SKBR3 viability, ATP luminescence, at 10 µM
Peptide text beside a SMILES is read from it. * marks the point of attachment. Boc = CC(C)(C)OC(=O)*
reported property: viability (%)

# molecule, test result
rows = [
    ("CCc1ccc2c(CN(CC)Cc3nc4ccccc4c(=O)[nH]3)cc(=O)oc2c1", 86),
    ("O=C(O)CN1C(=O)C2(OCCCO2)c2ccccc21", 86.5),
    ("C=C(C)Cn1c(N2CCN(CC)CC2)nc2c1c(=O)[nH]c(=O)n2C", 99.5),
    ("CN(C)S(=O)(=O)c1ccc(S(=O)(=O)Nc2ccc3c(c2)oc2ccccc23)cc1", 79.5),
    ("CCn1c2ccccc2c2cc(NC(=O)CSc3nnc(C4CC4)n3Cc3ccco3)ccc21", 104),
    ("O=C(CSc1nc2[nH]ncc2c(=O)n1-c1ccccc1Br)NCc1ccco1", 100),
    ("Cn1c(=O)[nH]c(=O)c2c1nc(N(CCO)Cc1ccccc1)n2Cc1ccccc1Cl", 90.5),
    ("OCC#CCSc1nnc(-c2ccccc2Br)o1", 118),
    ("COc1ccc(C)cc1NC(=O)CSc1nnnn1Cc1ccccc1", 83),
    ("CC(C)Oc1ccc(N2CC(C(=O)Nc3ccccc3F)CC2=O)cc1 (stereo not given)", 101),
    ("Cc1ccc(C(=O)C2COC(=O)C2)cc1 (stereo not given)", 109),
    ("COc1ccc(-c2cc(C(F)(F)F)n3ncc(C(=O)NCC4CCCO4)c3n2)cc1 (stereo not given)", 84),
    ("Cc1ccc(N2CCN(C(=O)c3ccccc3Br)CC2)c(C)c1", 110),
    ("Cc1cccc(N2C(=O)CC(N3CCN(Cc4ccc(Cl)cc4)CC3)C2=O)c1 (stereo not given)", 104),
    ("CCC(C)(C)NC(=O)C(c1ccco1)N(C(=O)Cn1nnc2ccccc21)c1ccc2c(c1)OCO2 (stereo not given)", 92.5),
    ("CCc1ccccc1-n1c(SCC(=O)N2CCCC2)nnc1-c1ccccn1", 106),
    ("C/C(=C(\\C#N)C(=O)NCCCN1CCOCC1)N(C)C", 96.5),
    ("Cc1nc2ncnn2c(Nc2ccc3c(c2)OCCO3)c1C", 91),
    ("Cc1cccc(-c2cc3nc(C)cc(NCCCN(C)C)n3n2)c1", 91.5),
    ("CCOC(=O)N1CCC(NC(=O)CSCc2nc(-c3cccc(OC)c3)oc2C)CC1", 94.5),
    ("O=C(CSc1n[nH]c(-c2cccs2)n1)N1CCN(S(=O)(=O)c2ccccc2)CC1", 80.5),
    ("CC1=C(C#N)C(=O)NC(C)(C)C1", 114),
    ("CC1CCN(CCn2c(=S)[nH]c3ncccc3c2=O)CC1", 98.5),
    ("CCCCOc1ccccc1C(=O)NCCCC(=O)O", 92.5),
    ("O=C(c1cnn2c(C(F)F)cc(C3CC3)nc12)N1CCOCC1", 104),
    ("COc1ccc2c(c1)C(C)=CC(C)(C)N2C(=O)C(C)N1C(=O)c2ccccc2C1=O (stereo not given)", 109),
    ("FC(F)(F)c1cccc(N2CCN(c3nnnn3-c3ccccc3)CC2)c1", 85),
    ("COC(=O)c1c(NC(=O)c2ccc(S(=O)(=O)N3CCOCC3)cc2)sc2c1CCN(C)C2", 96),
    ("S=C(c1cccs1)N1CCCC1", 90.5),
    ("CCN(Cc1cc2cc(OC)ccc2[nH]c1=O)C(=O)c1ccncc1", 89),
    ("COCCn1nnnc1C(c1cc2cc(OC)ccc2[nH]c1=O)N1CCC(Cc2ccccc2)CC1 (stereo not given)", 124),
    ("COc1ccccc1Nc1nc2ccccc2[nH]1", 92),
    ("COc1ccc(CN(CC(=O)NCc2ccco2)C(=O)CCC(=O)Nc2nccs2)cc1", 96),
    ("CC(C)CCNC(=O)NC(=O)COc1ccccc1C#N", 92.5),
    ("CC(C)CC(NC(=O)OC(C)(C)C)C(=O)NC(C(=O)NC(C)C(N)=O)C(C)C (stereo not drawn) (Boc-Leu-Val-Ala-NH2; configuration not given here)", 102),
    ("O=C(CCN1C(=O)C2C3C=CC(C3)C2C1=O)Nc1c(F)cc(F)cc1Br (stereo not given)", 99.5),
    ("CCCN(CCC)S(=O)(=O)c1ccc(C(=O)Nc2nnc(-c3cccc(OC)c3)o2)cc1", 98.5),
    ("O=C(CSc1nc2ccccc2n1CC(=O)N1CCCC1)Nc1nccs1", 106),
    ("CCNc1nc(N2CCCCC2)nc(-n2nnc(C(=O)OCC)c2C)n1", 162),
    ("C=CCn1c(SCC(=O)NC2CCCCC2)nnc1-c1sc(N)nc1C", 99.5),
    ("COC(=O)c1ccc(NC(=O)CN2CCN(c3ccc(Cl)cc3)CC2)cc1", 96.5),
    ("COc1ccc(S(=O)(=O)CCC(=O)O)cc1", 96.5),
    ("O=C(COC(=O)C12CC3CC(CC(O)(C3)C1)C2)N1CCN(S(=O)(=O)c2ccc(Cl)cc2)CC1", 87.5),
    ("Cn1cc(C(=O)c2ccc(F)cc2)cc1-c1nc2ccccc2n1C", 91),
    ("CCc1nnc(NC(=O)c2ccc(S(=O)(=O)NCC(C)C)cc2)s1", 92.5),
]
